Catalogue of molecules with associated TGI
test system: HS 578T breast; assay: NCI tumour cell line growth inhibition, 48 h
Quantity measured: TGI

CCCC[C@@H]1CCN2C[C@@H](O)[C@@H](O)[C@H]2[C@@H]1O; > 100 µM
Cc1c(-c2nc(N)nc(C3CC3)c2C)nc(N)nc1C1CC1; > 100 µM
C=C1CC=CC(C)(C)C1C/C=C(\C)C(O)CBr (stereo not given); > 100 µM
COc1ccc(/C=N/Nc2nc3ccccc3c(=O)n2-c2ccccc2)c(OCc2ccccc2)c1; > 100 µM
CCn1c(-c2nonc2N)nc2ccc(F)cc21; > 25 µM

---

tested on: NCI-H460 lung; assay: NCI tumour cell line growth inhibition, 48 h
Quick reference: TGI of the listed items.
Quantity measured: TGI

OCC1OC(O[C@H]2CN3[C@H](O)[C@@H](O)[C@H](O)[C@H]3C2O)C(O)C(O)C1O (stereo partly specified); > 100 µM
COc1cc2c(cc1O)CC[n+]1cc3c(OC)c(OC)ccc3cc1-2; > 100 µM
CCC1C(=O)OCc2c1cc1n(c2=O)CCC12OCCO2 (stereo unspecified); > 100 µM
Cc1c(-c2nc(N)nc(C3CC3)c2C)nc(N)nc1C1CC1; > 100 µM
Cc1ccsc1C(=S)Nc1ccc(Cl)c(C(=O)OC(C(C)C)C(C)C)c1; > 100 µM
NC(N)=N/N=C/c1c(-c2ccccn2)nc2sc(Cl)cn12; 50 µM
C=CC(=O)N1CCN(c2ncnc3c(F)c(-c4c(O)cccc4F)c(Cl)cc23)CC1; 33.5 µM
O=c1c2cc3c(=O)n(CCc4ccccc4CO)c(=O)c3cc2c(=O)n1CCc1ccccc1CO; > 100 µM
CCN(CCO)CCNc1ccc(C)c2sc3cc(Cl)ccc3c(=O)c12; 3.03 µM
COc1ccc2c(c1)C=CC(C#N)N2C(=O)c1ccccc1 (stereo unspecified); 36.7 µM
COc1ccc(/C=N/Nc2nc3ccccc3c(=O)n2-c2ccccc2)c(OCc2ccccc2)c1; > 100 µM

---

test system: MALME-3M melanoma; assay: NCI tumour cell line growth inhibition, 48 h; in the data active means GI50 below about 0.43 µM; inactive means the rest
Classes used: active, inactive

Cc1ccc2/c(=C/c3ccc(N(C)C)cc3)c3cc(-c4ccccc4)[n+](C)n3c2c1; active
CCOC(=O)[C@@H](C)C[C@H](Cc1ccccc1)NC(=O)c1csc([C@@H](C[C@H](C(C)C)N(C)C(=O)[C@@H](NC(=O)[C@H]2CCCCN2C)C(C)(C)C)OC(C)=O)n1; active
Cc1ccc(C(=O)CC(Sc2cccc(Cl)c2Cl)c2ccc(Cl)cc2)cc1C (stereo not drawn); inactive
COc1cc(-c2cn(C)c(=O)c(C)c2C)cc(OC)c1CN1CC[C@H](N2CCN(c3ccc(N[C@H]4CCC(=O)NC4=O)cc3F)CC2)C(F)(F)C1; inactive
C=C1CC(COc2cc(Cl)nc(N)n2)C1; inactive
O=C(Nc1cc(-c2ccccc2)[nH]n1)c1ccc(Cl)cc1; inactive
COc1ccc(C2C(C#N)=C(N)OC3=C2CCCc2ccc(F)cc23)cc1OC (stereo not drawn); inactive
C=C1C(=O)O[C@H]2[C@H]1CC/C(COC(=O)c1cc3cc(OC)ccc3[nH]1)=C\CC[C@@]1(C)O[C@@H]21; inactive

---

tested on: HOP-62 NSCLC; assay: NCI tumour cell line growth inhibition, 48 h; in the data active = GI50 below about 0.43 µM; inactive = the rest
Labels: T = active, F = inactive

C[C@H]1CCC/C=C/[C@@H]2C[C@H](N)C[C@H]2[C@H](O)/C=C/C(=O)O1; F
CC1=C(C)C(=O)O[C@@H]([C@](C)(O)[C@]2(O)CC[C@@]3(O)[C@@H]4C[C@H]5O[C@]56CC=CC(=O)[C@]6(C)[C@H]4CC[C@]23C)C1; T
C=C1C(=O)O[C@H]2[C@H]1CC/C(COC(=O)c1cc3cc(OC)ccc3[nH]1)=C\CC[C@@]1(C)O[C@@H]21; F
COC(=O)NC/C=C\c1nc(CC/C=C\C(=O)OC2CC3CC(=O)O[C@@H](/C=C/CC(C)C)C[C@@H]4CCC(C)C(C[C@@H](OC)CC(C2)O3)O4)co1 (some centres undefined); T
COc1cc2c3c(n(C)c(=O)c2cc1OC)-c1cc2c(cc1/C3=C/CCCCBr)OCO2; F
COc1ccc(C2C(C#N)=C(N)OC3=C2CCCc2ccc(F)cc23)cc1OC (centres undefined); F
CCN(Cc1c(F)cccc1F)c1ccc(CO)c(Cl)c1; T
CC(=O)n1c(-c2ccc(Cl)cc2)nc2c(c1=O)C(c1ccc(Cl)cc1)c1sc3c(Cl)cccc3c1O2 (centres undefined); T
CCCCCCNc1nc(NCCCCCC)c2[nH]c(NCCCCCC)nc2n1; F
O=P(O)(O)C(O)(Cn1ccnc1)P(=O)(O)O; F
Cc1ccc(C(=O)CC(Sc2cccc(Cl)c2Cl)c2ccc(Cl)cc2)cc1C (centres undefined); F
CC(=O)[CH-]C(C)=O.CC(=O)[CH-]C(C)=O.N=CC=N.[Sn+2]; F
CCn1c(-c2nonc2N)nc2ccc(F)cc21; F
Clc1ccc(OCc2nnc3n2N=C(c2ccc(Cl)cc2Cl)CS3)c(Cl)c1; F
